# assay.name: NCI Yeast Anticancer Drug Screen. Data for the cln2 rad14 strain (AID 165);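 also: 0% = growth equal to vehicle treated cultures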
# reported.conditions: S. cerevisiae cln2 rad14 strain, at 50.0 µM, stronger effect = higher value
The panel holds about 79,000 compounds, 15% with a hit somewhere; the sample as a whole holds those more often.
Answer F if growth inhibition is under 70%, and T if it is 70% or more.

[[record]]
molecule = "CCOc1c(N=Nc2ccccc2Cl)c(-c2ccccc2)nn1C(=S)S"
answer_label = "F"

[[record]]
molecule = "CC/C(=C(\\CC)c1ccc(O)c(CN(CC)CC)c1)c1ccc(OC)cc1"
answer_label = "T"

[[record]]
molecule = "CCOC(=O)N1CCN(C=S)CC1"
answer_label = "F"

[[record]]
molecule = "Clc1ccccc1CN1COc2c(cc(Cl)c3cccnc23)C1"
answer_label = "T"

[[record]]
molecule = "CC1(C)CC(=N/O)/C(=N/O)C(=N\\NC(N)=S)/C1"
answer_label = "F"


Query :: Quick check, growth inhibition >= 70%? CCOC(=O)CSC(=S)Nc1ccc(Cl)cc1
Result :: F

Query :: Quick check, growth inhibition >= 70%? Cc1c(NC(=O)CCl)c(=O)oc2c(C)c3occc(=O)c3cc12
Result :: F

Query :: Quick check, growth inhibition >= 70%? c1cc2ccc1C1NCCCN1CCN1CCCNC1c1ccc(cc1)C1NCCCN1CCN1CCCNC21 (configuration not stated)
Result :: F

Query :: Quick check, growth inhibition >= 70%? CC1CCCCN(CCN(Cc2ccccc2)c2ccccc2)C1 (configuration not stated)
Result :: T

====

# assay.name: NCI Yeast Anticancer Drug Screen. Data for the mec2-1 strain (AID 157)
# reported.conditions: S. cerevisiae mec2-1 strain, at 50.0 µM (retest, dose inferred, filed as 5.0), stronger effect = higher value
The panel holds about 79,000 compounds, 15% with a hit somewhere; the sample as a whole holds those more often.
Answer Not met if growth inhibition is under 50%, and Met if it is 50% or more.

Some entries whose results are on file:
[[record]]
compound = "CCCCn1cnc2c(SCc3ccccc3[N+](=O)[O-])nc(N)nc21"
answer_label = "Not met"

[[record]]
compound = "CS(=O)(=O)C(=Cc1ccccc1Cl)S(C)(=O)=O"
answer_label = "Not met"


Query :: Quick check, growth inhibition >= 50%? C1CCC(CCNCCC2CCCCC2)CC1
Result :: Met

Query :: Quick check, growth inhibition >= 50%? CCCCCSc1nc2ncnc(N)c2[nH]1
Result :: Not met

Query :: Quick check, growth inhibition >= 50%? CC(=O)C1CCC2C1(C)CC1OC13C21C=CC2(CC(O)CCC23C)C2C(=O)OC(=O)C21 (centres undefined)
Result :: Met

Query :: Quick check, growth inhibition >= 50%? O=C(O)C(c1ccccc1)c1ccc(-c2ccccc2)cc1 (centres undefined)
Result :: Met

====

# assay.name: NCI Yeast Anticancer Drug Screen. Data for the mec2-1 strain (AID 157)
# reported.conditions: S. cerevisiae mec2-1 strain, at 50.0 µM
About 79,000 compounds went through this panel and 15% of them were active in at least one assay; those are over-represented in the sample as a whole. Activity calls are given as the source filed them. Rule as the data show it: active = growth inhibition above about 70%; inactive = the rest.
Field 'call' accepts 1 = active, 0 = inactive

[[record]]
compound = "COC(=O)/C(=N\\NC(=O)c1ccccc1O)C(C#N)c1ccc(Cl)cc1 (centres undefined)"
answer_label = 0


Now take the following compound into account.
Query :: What did this assay record as the result for CCOC(=O)C1=C(C)NC(C)=C(C(=O)OCC)C1c1ccnc2ccccc12 ?
Result :: 0

====

# assay.name: NCI Yeast Anticancer Drug Screen. Data for the bub3 strain (AID 167)
# reported.conditions: S. cerevisiae bub3 mutant strain, at 5.0 µM (retest, dose inferred, filed as 0.5)
Compounds without any hit were thinned out: in the full panel of roughly 79,000, 15% have a hit. Calls of active or inactive are those of the source. No stated cut-off is given here; in the data, active means growth inhibition above about 70%; inactive means the rest. Where a SMILES comes first, the peptide text is derived from it. The star is where a group is joined. X7 = Clc1c(Cl)c(Cl)c(O*)c(Cl)c1Cl; Boc = CC(C)(C)OC(=O)*; OBn = c1ccc(CO*)cc1; Bn = c1ccc(C*)cc1
Field 'call' accepts true (active), false (inactive)

[[record]]
molecule = "CN(C)/N=C\\C1CC=CCC1 (stereo not given)"
answer_label = "false"


Query :: What did this assay record as the result for CC(C)CC(NC(=O)C(CCC(=O)OCc1ccccc1)NC(=O)OC(C)(C)C)C(=O)NC(COCc1ccccc1)C(=O)NC(Cc1ccccc1)C(=O)Oc1c(Cl)c(Cl)c(Cl)c(Cl)c1Cl (stereo not given) (Boc-E(OBn)LS(Bn)F-X7; configuration not given here) ?
Result :: false

Query :: What did this assay record as the result for O=S(=O)(CCCCl)SCCCCl ?
Result :: false

Query :: What did this assay record as the result for CN(/N=C\c1ccc2ccccc2c1)C1=NCCCN1 ?
Result :: true

Query :: What did this assay record as the result for C[C@]12CC[C@@H]3c4ccc(O)cc4CC[C@H]3[C@@H]1CC[C@@H]2NCCCCCCO ?
Result :: false

====

Measured growth inhibition by item
# assay.name: NCI Yeast Anticancer Drug Screen. Data for the rad50 strain (AID 155);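 also: 0% = growth of vehicle-only cultures of the same strain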
# reported.conditions: S. cerevisiae rad50 strain growth inhibition; at 50.0 µM (retest, dose inferred, filed as 5.0); stronger effect = higher value
The panel holds about 79,000 compounds, 15% with a hit somewhere; the sample as a whole holds those more often. Where a SMILES comes first, the peptide text is derived from it. [ ]: non-standard residue; d: D form. The star is where a group is joined. mTyr = N[CH](Cc1cccc(O)c1)C(=O)O; Cbz = O=C(OCc1ccccc1)*; OBn = c1ccc(CO*)cc1
The reply should contain only the number, in %.

Query :: Which growth inhibition value belongs to O=[N+]([O-])/C=C/C=C/c1ccco1 ?
Result :: 98

Query :: Which growth inhibition value belongs to COC(=O)C(Cc1cccc(O)c1)NC(=O)C(CC(=O)OCc1ccccc1)NC(=O)OCc1ccccc1 (stereo not given) (Cbz-Asp(OBn)-[mTyr]-OMe; configuration not given here) ?
Result :: 70

Query :: Which growth inhibition value belongs to CC(=O)c1c(-c2ccco2)c(C#N)c(=S)n(C2OC(CO)C(O)C(O)C2O)c1-c1ccccc1 (stereo not given) ?
Result :: 12

Query :: Which growth inhibition value belongs to O=C(Cc1c[nH]c2ccccc12)N/N=C/c1ccc(Cl)cc1[N+](=O)[O-] ?
Result :: 73

Query :: Which growth inhibition value belongs to COc1ccccc1/C=C1\C=Cc2ccccc21 ?
Result :: 6

====

# assay.name: NCI Yeast Anticancer Drug Screen. Data for the mlh1 rad18 strain (AID 175)
# reported.conditions: S. cerevisiae mlh1 rad18 strain growth inhibition; at 5.0 µM (retest, dose inferred, filed as 0.5); stronger effect = higher value
The panel holds about 79,000 compounds, 15% with a hit somewhere; the sample as a whole holds those more often.
readout: growth inhibition (%)
The reply should contain only the number, in %.

// below: answered compounds
[[record]]
compound = "COC(=O)c1nc(=S)[nH]c(C(=O)OC)c1C(=O)c1ccc([N+](=O)[O-])cc1"
readout = "growth inhibition"
readout_value = -2

[[record]]
compound = "Cc1cc(Br)cc(C)c1NC(=O)C(=O)C(C(=O)c1ccc2ccccc2c1)C1OC(=O)c2ccccc21 (stereo unspecified)"
readout = "growth inhibition"
readout_value = 4

[[record]]
compound = "O=C1c2ccccc2C(=O)c2sc(Nc3ccccc3C(F)(F)F)nc21"
readout = "growth inhibition"
readout_value = 99

[[record]]
compound = "O=C(c1ccccc1)c1[nH]c2ccccc2c(=O)c1-c1ccc([N+](=O)[O-])cc1"
readout = "growth inhibition"
readout_value = 3

[[record]]
compound = "COc1ccc(SC2=C(N(C)C)C(=O)c3ccccc3C2=O)cc1"
readout = "growth inhibition"
readout_value = 11

[[record]]
compound = "C(=N\\NC1=NCCN1)/c1cccc2cc3ccncc3nc12"
readout = "growth inhibition"
readout_value = -9

[[record]]
compound = "C[C@H]1CC[C@@H]2[C@@H](C)[C@H]3[C@H](C[C@H]4[C@@H]5CC=C6C[C@@H](O)CC[C@]6(C)[C@H]5C[C@H](O)[C@]34C)N2C1"
readout = "growth inhibition"
readout_value = 1

[[record]]
compound = "CNc1nc(N)nc(N(C)c2ccc(Br)cc2)c1N=O"
readout = "growth inhibition"
readout_value = 36

[[record]]
compound = "C/C(=N\\NC(=S)N1CC(C)OC(C)C1)c1ncccn1 (stereo unspecified)"
readout = "growth inhibition"
readout_value = 80

[[record]]
compound = "CCCCOC(=O)c1nc(N(CC2CCCCC2)C(=O)NC)sc1NC(=O)NC"
readout = "growth inhibition"
readout_value = 5


Query :: Which growth inhibition value belongs to O=C1OC(c2ccccc2)(c2ccccc2)Cc2ccccc21 ?
Result :: -21

Query :: Which growth inhibition value belongs to CCCCCCCCCSC(=S)N(C)NC(=O)c1ccccn1 ?
Result :: 8

Query :: Which growth inhibition value belongs to Cc1cc(NC(=S)SCc2ccc(Cl)cc2)ccc1F ?
Result :: 2
